# assay_procedure: AUC (0 to 6 hrs) in Sprague-Dawley rat plasma at 10 mg/kg, po measured at 30 mins to 6 hrs post dose
# Format: ADME, organism-based
# Design: dose 10 mg/kg, time < 6 hr, route oral
measured_quantity: AUC(0-t) at 6 h (µM·h)
# unit: µM·h | format: bare number

Study these solved cases before continuing.
// Input: CC(C)(C)S(=O)(=O)Nc1ccc(-c2c(C(N)=O)c3cc(F)c(OC(F)F)cc3n2C2CCCC2)c(Cl)c1 . Output its AUC(0-t) at 6 h only.
9.96

Note AUC(0-t) at 6 h for the compound shown: CCc1cc2c(cc1F)c(C(N)=O)c(-c1ccc(NS(=O)(=O)C(C)(C)C)cc1)n2C1CCCC1
4.12

Please give the documented AUC(0-t) at 6 h of CC(C)(C)S(=O)(=O)Nc1ccc(-c2c(C(N)=O)c3cc(F)c(OC(F)F)cc3n2-c2ccccc2)cc1
14.4

Continuing:
Retrieve AUC(0-t) at 6 h measured for Cc1cc(NS(=O)(=O)C(C)(C)C)ccc1-c1c(C(N)=O)c2cc(F)c(OC(F)F)cc2n1C1CCCCC1 and print it.
4.96

---

# assay_procedure: Ratio of drug level in liver to plasma in Sprague-Dawley rat at 10 mg/kg, po measured 6 hrs post dose
# Type: ADME, organism-based
# measurement_context: liver and plasma
# cutoff 20 applies to Kp at 6 h; >= gives 1, < gives 0

Does Kp at 6 h meet or surpass 20 for CC(C)(C)S(=O)(=O)Nc1ccc(-c2c(C(N)=O)c3cc(F)c(OC(F)F)cc3n2C2CCCCC2)cc1 ?
1

Identify whether the reported Kp at 6 h of the following molecule is 20 or greater: CC(C)(C)S(=O)(=O)Nc1ccc(-c2c(C(N)=O)c3cc(F)c(OC(F)F)cc3n2-c2ccccc2)c(F)c1
1

Entry CC(C)(C)S(=O)(=O)Nc1ccc(-c2c(C(N)=O)c3cc(F)c(OC(F)F)cc3n2C2CCCCC2)c(F)c1 : is its Kp at 6 h no less than 20?
1

Hi team, for Cc1cc2c(cc1F)c(C(N)=O)c(-c1ccc(NS(=O)(=O)C(C)(C)C)cc1)n2-c1ccccc1 , is the recorded Kp at 6 h at or above 20?
1

Item CC(C)(C)S(=O)(=O)Nc1ccc(-c2c(C(N)=O)c3cc(F)c(OC(F)F)cc3n2C2CCCC2)cc1 with Kp at 6 h of 20 or above?
1

Continuing:
State whether the measured Kp at 6 h reaches 20, counting equality as reaching it, for Cc1cc2c(cc1F)c(C(N)=O)c(-c1ccc(NS(=O)(=O)C(C)(C)C)cc1)n2C1CCCC1
0

---

# Tested on: Hepatitis C virus
# assay_procedure: Antiviral activity against HCV genotype 1b Con1 bicistronic replicon infected in human Huh7 cells assessed as replicon RNA expression measured 3 days post dose by real time RT-PCR analysis
# Type: functional, organism-based, Hepacivirus hominis
# measurement_context: isolate Con1, Huh-7, 72 h
measured_quantity: pEC50
Scale: negative log10 of molar concentration, which is what pEC50 denotes.

Study these solved cases before continuing.
Note down pEC50 recorded for Cc1cc(NS(=O)(=O)C(C)(C)C)ccc1-c1c(C(N)=O)c2cc(F)c(OC(F)F)cc2n1-c1ccccc1
8.70

Report pEC50, nothing else, for this compound: Cc1cc2c(cc1F)c(C(N)=O)c(-c1ccc(NS(=O)(=O)C(C)(C)C)cc1)n2C1CCOCC1
7.77

Give recorded pEC50. Cc1cc2c(cc1F)c(C(N)=O)c(-c1ccc(NS(=O)(=O)C(C)(C)C)cc1)n2C1CCCCC1
8.70

Now consider the entry below.
Please give measured pEC50 of the following entry: COc1cc2c(cc1F)c(C(N)=O)c(-c1ccc(NS(=O)(=O)C(C)(C)C)cc1)n2C1CCCC1
7.23
